The origin of these recorded values is ChEMBL document CHEMBL4619800.

system: Plasmodium falciparum; assay: Antiplasmodial activity against chloroquine-resistant Plasmodium falciparum W2 infected in erythrocytes assessed as reduction in [3H]hypoxanthine incorporation preincubated for 48 hrs followed by [3H]hypoxanthine addition and measured after 18 hrs by topcount scintillation counting analysis; type: functional, organism-based
MEASURED_ENDPOINT: pIC50
Please report pIC50 as the negative decimal logarithm of the molar concentration, giving only the number.

STRUCTURE_SMILES_STRING	MEASURED_ENDPOINT	OBSERVED_VALUE
Nc1nc2c(ncn2CC[C@@H](O)CP(=O)([O-])[O-])c(=O)[nH]1.[Na+].[Na+]	pIC50	7.35

Now examine the next entry.
Input: // lookup pIC50 for "Nc1nc2c(ncn2CC[C@H](O)CP(=O)(O)O)c(=O)[nH]1"
Output: 5.25

###

In this section we review reported IC50 values for a set of molecules.
tested on: Plasmodium falciparum; experiment: Antiplasmodial activity against chloroquine-resistant Plasmodium falciparum FcM29 infected in erythrocytes assessed as reduction in [3H]hypoxanthine incorporation preincubated for 48 hrs followed by [3H]hypoxanthine addition and measured after 18 hrs by topcount scintillation counting analysis; format: functional, organism-based
Write it as a number; the unit nM goes unstated.

STRUCTURE_SMILES_STRING	UNITS_OF_MEASURE	IC50
Nc1nc2c(ncn2CC[C@@H](O)CP(=O)([O-])[O-])c(=O)[nH]1.[Na+].[Na+]	nM	30

Now examine the next entry.
Input: // lookup IC50 for "Nc1nc2c(ncn2CC[C@H](O)CP(=O)(O)O)c(=O)[nH]1"
Output: 4500

###

assay: Selectivity index, ratio of IC50 for human K562 cells to IC50 for antiplasmodial activity against Plasmodium falciparum 3D7 infected in erythrocytes; assay type: toxicity, cell-based; conditions: K562 cells versus Plasmodium falciparum 3D7 in erythrocytes, read-out: Ratio IC50
MEASURED_ENDPOINT: selectivity ratio

Completed entries (count: 5):
STRUCTURE_SMILES_STRING	selectivity ratio
Nc1nc(O)c2ncn(CCCCP(=O)(O)O)c2n1	> 17
Nc1nc(N)c2ncn(C[C@@H](O)CP(=O)(O)O)c2n1	> 2.6
O=c1[nH]c(=O)c2ncn(CC[C@H](O)CP(=O)(O)O)c2[nH]1	> 1
Nc1nc(F)nc2c1ncn2CC[C@@H](O)CP(=O)(O)O	> 38
Nc1ncc2ncn(CC[C@@H](O)CP(=O)(O)O)c2n1	> 16

Now examine the next entry.
Input: // lookup selectivity ratio for "Nc1nc(N)c2ncn(C[C@H](O)CP(=O)(O)O)c2n1"
Output: > 2

###

experiment: Toxicity in human K562 cells assessed as effect on cell growth measured after 24 hrs by [3H]thymidine incorporation based assay
In this section we review reported IC50 at 24 h values for a set of compounds.

Completed entries (count: 5):
COMPOUND	MEASURED_ENDPOINT	OBSERVED_VALUE
Nc1nc(N)c2ncn(CC[C@H](O)CP(=O)(O)O)c2n1	IC50 at 24 h	> 1000 µM
Nc1nc2c(ncn2C[C@H](O)CP(=O)(O)O)c(=O)[nH]1	IC50 at 24 h	> 1000 µM
Nc1ncnc2c1ncn2C[C@H](O)CP(=O)(O)O	IC50 at 24 h	> 1000 µM
Nc1nc(N)c2ncn(C[C@@H](O)CP(=O)(O)O)c2n1	IC50 at 24 h	> 1000 µM
CCN(CC)CCCC(C)Nc1ccnc2cc(Cl)ccc12 (stereo unspecified) [CHLOROQUINE]	IC50 at 24 h	25.3 µM

Input: // lookup IC50 at 24 h for "Nc1nc(O)c2ncn(CC[C@@H](N)CP(=O)(O)O)c2n1"
Output: > 1000 µM

###

test: Selectivity index, ratio of IC50 for human K562 cells to IC50 for antiplasmodial activity against Plasmodium falciparum 3D7 infected in erythrocytes; assay type: toxicity, cell-based; conditions: K562 cells versus Plasmodium falciparum 3D7 in erythrocytes, read-out: Ratio IC50
MEASURED_ENDPOINT: selectivity ratio

STRUCTURE_SMILES_STRING	selectivity ratio
Nc1nc2c(ncn2C[C@H](O)CP(=O)(O)O)c(=O)[nH]1	> 1.7
Nc1nc(N)c2ncn(CC[C@@H](O)CP(=O)(O)O)c2n1	> 21
Nc1nc2c(ncn2CC[C@@H](O)CP(=O)([O-])[O-])c(=O)[nH]1.[Na+].[Na+]	> 1350

Input: // lookup selectivity ratio for "Nc1nc2c(ncn2CC[C@H](O)CP(=O)(O)O)c(=O)[nH]1"
Output: 164
